experiment-notes: mn = molality of the nth substance listed, in mol/kg
condition-description: 283.15 K; Liquid; m2 = 0
± gives the expanded uncertainty stated by the source.
readout: mass density

Below: 3 compounds and their reported mass density.
The recorded mass density for CO [methanol] + [Br-].c1ccc([P+](c2ccccc2)(c2ccccc2)c2ccccc2)cc1 is 800.567 ± 0.32 kg/m3

The recorded mass density for CO [methanol] + [Br-].[Na+] is 800.625 ± 0.29 kg/m3

The recorded mass density for CO [methanol] + [Na+].c1ccc([B-](c2ccccc2)(c2ccccc2)c2ccccc2)cc1 is 800.575 ± 0.31 kg/m3

Continue with the next compound.
The recorded mass density for CO [methanol] + [Na+].[O-][Cl+3]([O-])([O-])[O-] is 800.568 ± 0.29 kg/m3

---

experiment-notes: mn = molality of the nth substance listed, in mol/kg
condition-description: 303.15 K; Liquid; m2 = 0
± gives the expanded uncertainty stated by the source.
We begin with a simple list: items and their reported mass density.
// unit must come after the numeric part

The recorded mass density for CO [methanol] + [Br-].c1ccc([P+](c2ccccc2)(c2ccccc2)c2ccccc2)cc1 is 781.748 ± 0.34 kg/m3

The recorded mass density for CO [methanol] + [Na+].[O-][Cl+3]([O-])([O-])[O-] is 781.746 ± 0.31 kg/m3

The recorded mass density for CO [methanol] + [Na+].c1ccc([B-](c2ccccc2)(c2ccccc2)c2ccccc2)cc1 is 781.758 ± 0.33 kg/m3

The recorded mass density for CO [methanol] + [Br-].[Na+] is 781.808 ± 0.31 kg/m3

---

experiment-notes: mn = molality of the nth substance listed, in mol/kg
condition-description: 308.15 K; Liquid; m2 = 0
We begin with a simple list: items and their reported mass density.
Your answer should be a plain number; it is taken to be in kg/m3.

The recorded mass density for CO [methanol] + [Na+].[O-][Cl+3]([O-])([O-])[O-] is 776.997

The recorded mass density for CO [methanol] + [Na+].c1ccc([B-](c2ccccc2)(c2ccccc2)c2ccccc2)cc1 is 777.007

The recorded mass density for CO [methanol] + [Br-].c1ccc([P+](c2ccccc2)(c2ccccc2)c2ccccc2)cc1 is 776.997

Continue with the next compound.
The recorded mass density for CO [methanol] + [Br-].[Na+] is 777.058

---

experiment-notes: mn = molality of the nth substance listed, in mol/kg
condition-description: 298.15 K; Liquid; m2 = 0
We begin with a simple list: items and their reported mass density.
Your answer should be a plain number; it is taken to be in kg/m3.

Below: 3 compounds and their reported mass density.
The recorded mass density for CO [methanol] + [Na+].[O-][Cl+3]([O-])([O-])[O-] is 786.475

The recorded mass density for CO [methanol] + [Br-].c1ccc([P+](c2ccccc2)(c2ccccc2)c2ccccc2)cc1 is 786.475

The recorded mass density for CO [methanol] + [Na+].c1ccc([B-](c2ccccc2)(c2ccccc2)c2ccccc2)cc1 is 786.485

Continue with the next compound.
The recorded mass density for CO [methanol] + [Br-].[Na+] is 786.534

---

experiment-notes: mn = molality of the nth substance listed, in mol/kg
condition-description: 293.15 K; Liquid; m2 = 0
readout: mass density (kg/m3)
Your answer should be a plain number; it is taken to be in kg/m3.

Below: 3 compounds and their reported mass density.
The recorded mass density for CO [methanol] + [Br-].[Na+] is 791.243

The recorded mass density for CO [methanol] + [Br-].c1ccc([P+](c2ccccc2)(c2ccccc2)c2ccccc2)cc1 is 791.184

The recorded mass density for CO [methanol] + [Na+].[O-][Cl+3]([O-])([O-])[O-] is 791.184

Continue with the next compound.
The recorded mass density for CO [methanol] + [Na+].c1ccc([B-](c2ccccc2)(c2ccccc2)c2ccccc2)cc1 is 791.194
